Kindly supply the reported glycan array binding signal (z-score) values for the records listed here.
target_desc: Fuc(a1-3)[Gal(b1-4)]GlcNAc6S
method_notes: glycan array binding signal (z-score within array); higher = stronger binding
measurement_parameters: glycan notation: IUPAC condensed, linker removed
Many of the other results were omitted from the sample, so the strongest signals are more common in it than they were.
Answers are plain numbers.

Known results for binders:
Enquiry: Tell me the measured glycan array binding signal (z-score) of AFCNVH (Aspergillus fumigatus) (protein) MSLRGFHTTCDTIVLKDKHILSSRCKRPDGTYSFSEIDLNDCLGNNNGKFVWGGESFVDSASQVNLALEGGEGRPMLHAQLNDWHGSVQSASVNLGECIQNEAGGLEYMHC , please.
Return: -0.372

Enquiry: Could you tell me which glycan array binding signal (z-score) is on file for Apa (Mycobacterium tuberculosis), Rv1860 (protein) MHQVDPNLTRRKGRLAALAIAAMASASLVTVAVPATANADPEPAPPVPTTAASPPSTAAAPPAPATPVAPPPPAAANTPNAQPGDPNAAPPPADPNAPPPPVIAPNAPQPVRIDNPVGGFSFALPAGWVESDAAHFDYGSALLSKTTGDPPFPGQPPPVANDTRIVLGRLDQKLYASAEATDSKAAARLGSDMGEFYMPYPGTRINQETVSLDANGVSGSASYYEVKFSDPSKPNGQIWTGVIGSPAANAPDAGPPQRWFVVWLGTANNPVDKGAAKALAESIRPLVAPPPAPAPAPAEPAPAPAPAGEVAPTPTTPTPQRTLPA ?
Return: 1.94

Enquiry: What value of glycan array binding signal (z-score) has been recorded for this entry: Eosinophil-derived neurotoxin (EDN) (Homo sapiens), P10153 (protein) MVPKLFTSQICLLLLLGLLAVEGSLHVKPPQFTWAQWFETQHINMTSQQCTNAMQVINNYQRRCKNQNTFLLTTFANVVNVCGNPNMTCPSNKTRKNCHHSGSQVPLIHCNLTTPSPQNISNCRYAQTPANMFYIVACDNRDQRRDPPQYPVVPVHLDRII
Return: 0.272

Enquiry: Param item = Pbx1CASH domain (Cryptococcus neoformans) (protein) MDETKPLWGNPRADGISLACKDSIVERNVVYDATDGAIVLFGSAGSTVKNNHVYARTRVILGGINLVDYEPWDGDYTNVKVHHNHLYALGRYFKVGIVIGPASWSDDTESVVHSASVTDNEFSGGYWGYGIVVASAKNFEVLRNKVIWDGEQGVARFSGVPGS ; retrieve measured glycan array binding signal (z-score).
Return: 0.01

Now let's try a different one.
Enquiry: Given HA-61200 (Pseudomonas aeruginosa), Q02SP8_PSEAB (protein) MNKCYALVWNVSQGCWNVVSEGSRRRGKPAGAKAAIASVLALLGATALAPAYALPSGGTVVGGSANGEIHLSGGNSLSVNQKVDKLIANWDSFSVAAGERVIFNQPSSSSIALNRVIGTKASDIQGRIDANGQVFLVNPNGVLFGRGAQVNVGGLVASTLDITDAEFNGNSSRYRFTGPSTNGVLNHGGAITAAEGGSIALLGAQVDNRGTVLAQMGGVGLGAGSDLTLNFDGNKLLDIRVDAGVANALASNGGLLKADGGRVLMAARTANALLNTVVNSQGAIEARSLRGKNGRIVLDG , state its recorded glycan array binding signal (z-score).
Return: 1.51
